Test system: NOMO1
protocolDetails: cell viability relative to DMSO control; higher = less cytotoxic
experimentalContext: RPMI 5 mM glucose + 10% FBS; 48 h; 0.00234 µM
assayReadout: cell viability (%)

molecule=O=C1[C@H](Cc2ccc(O)cc2)N2C(=O)CCN(C(=O)NCc3ccccc3)[C@H]2CN1Cc1cccc2ccccc12 value=78.7
molecule=NNCCc1ccccc1 value=132
molecule="O=C(O)CCC1CCC(c2cc(F)ccc2F)([S+](=O)([O-])c2ccc(Cl)cc2)CC1 (stereo not given)" value=115
molecule=CC(C)(O)CC[C@@H](O)[C@](C)(O)[C@H]1CC[C@@]2(O)C/3=C/C(=O)[C@@H]4C[C@@H](O)[C@@H](O)C[C@]4(C)[C@H]3CC[C@]12C value=97.3
molecule=CCOC(=O)[C@@H](N)Cc1ccc(-c2cc(O[C@H](c3ccc(Cl)cc3-n3ccc(C)n3)C(F)(F)F)nc(N)n2)cc1.O=C(O)CNC(=O)c1ccccc1 value=96.2
molecule="CC(C)C1NC(=O)C(NC(=O)C2=C3\\N=C\\4/C(=C(C)\\C(=O)\\C(=C4C(=O)NC5C(C)OC(=O)C(C(C)C)N(C)C(=O)CN(C)C(=O)C6CCCN6C(=O)C(NC5=O)C(C)C)N)OC3=C(C)C=C2)C(C)OC(=O)C(C(C)C)N(C)C(=O)CN(C)C(=O)C7CCCN7C1=O (stereo not given)" value=9.36
molecule=CC(C)c1nc(CN(C)C(=O)N[C@H](C(=O)N[C@@H](Cc2ccccc2)C[C@H](O)[C@H](Cc2ccccc2)NC(=O)OCc2cncs2)C(C)C)cs1 value=75.3
molecule=N#CCNC(=O)c1ccc(-c2ccnc(Nc3ccc(N4CCOCC4)cc3)n2)cc1 value=116
molecule=CC(C)(C)NC(=O)Nc1cccc(Nc2ncc(F)c(NC(C)(C)CO)n2)c1 value=115
molecule=COc1ccc([S+](=O)([O-])N(C(C)=O)c2ccccc2/C=C/c2cc[n+]([O-])cc2)cc1 value=106
molecule="CCC[S+]([O-])c1ccc2[nH]c(NC(=O)OC)nc2c1 (stereo not given)" value=96.6
molecule="CC1CNc2c(cccc2[S+](=O)([O-])N[C@@H](CCCNC(=N)N)C(=O)N2CC[C@@H](C)C[C@@H]2C(=O)O)C1 (stereo not given in full)" value=87.9
molecule=COc1ccc(-c2ccc3ncc4c(c3c2)n(-c2ccc(N3CCNCC3)c(C(F)(F)F)c2)c(=O)n4C)cn1 value=100
molecule=C[C@]12COC(=O)C[C@@H]1CC[C@@H]1[C@@H]2CC[C@@]2(C)[C@H]1CC[C@]2(C)O value=87.1
molecule=N[S+]([O-])(=O)C1=C(Cl)C=C2\N=C/N[S+]([O-])(=O)C2=C1 value=100
molecule=CC(C)(C)OC(=O)N[C@H]1CCCCC/C=C\[C@@H]2C[C@@]2(C(=O)N[S+](=O)([O-])C2CC2)NC(=O)[C@@H]2C[C@@H](OC(=O)N3Cc4cccc(F)c4C3)CN2C1=O value=93.3
molecule=CN(C)C1CCN(C(=O)c2ccc(NC(=O)Nc3nc(N4CCOCC4)nc(N4CCOCC4)n3)cc2)CC1 value=89.3
molecule=COc1cc(F)c(F)c(Nc2ccc(I)cc2F)c1N[S+](=O)([O-])C1(C[C@H](O)CO)CC1 value=95.3
molecule="CNCC(O)c1ccc(O)cc1 (stereo not given)" value=104
molecule=COC(=O)Nc1cc(Nc2cc(NC3CC3)c3ncc(C#N)n3n2)c(Cl)c(N2CCN(C)CC2)c1 value=112

---

Tested on: SEM cells
protocolDetails: cell viability relative to DMSO control; higher = less cytotoxic
experimentalContext: HPLM + 10% dialyzed FBS; 48 h; 5.12 µM
Recorded cell viability values for a group of molecules are listed next.
assayReadout: cell viability (%)

molecule=O=C(C=CC#Cc1cccc(N[S+](=O)([O-])c2ccccc2)c1)NO targetdesc="SEM cells" value=13.1
molecule=CCN(CC)CCOc1ccc(/C(=C(\Cl)c2ccccc2)c2ccccc2)cc1 targetdesc="SEM cells" value=129
molecule=S=C(NCc1ccc2c(c1)OCO2)N1CCN(c2ncnc3c2oc2ccccc23)CC1 targetdesc="SEM cells" value=93.7
molecule=C[C@H]1COC2=C3N1\C=C(C(O)=O)/C(=O)C3=CC(=C2N4CCN(C)CC4)F targetdesc="SEM cells" value=68.2
molecule=COc1cc(OC2CCN(C)CC2)ccc1Nc1ncc2c(n1)n(C1CCCC1)c(=O)n2C targetdesc="SEM cells" value=59
molecule=CC(=O)O[C@@]1(CC[C@H]2[C@@H]3\C=C(Cl)/C4=C/C(=O)[C@@H]5C[C@@H]5[C@]4(C)[C@H]3CC[C@]12C)C(C)=O targetdesc="SEM cells" value=136
molecule=CC(C)CNc1ccnc(NCc2csc(-c3ccccc3)n2)n1 targetdesc="SEM cells" value=108
molecule="OC(c1cc(C(F)(F)F)nc2c(C(F)(F)F)cccc12)C1CCCCN1 (stereo not given)" targetdesc="SEM cells" value=126
molecule=O=C1NC(=O)/C(=C/c2ccc3nccc(-c4ccncc4)c3c2)S1 targetdesc="SEM cells" value=19.7
molecule="CCC[S+]([O-])c1ccc2[nH]c(NC(=O)OC)nc2c1 (stereo not given)" targetdesc="SEM cells" value=94.6
molecule=CC(C)OC(=O)C(C(=O)OC(C)C)=C1S\C=C/S1 targetdesc="SEM cells" value=118
molecule=C[C@@H]1COCCN1c1cc(C2([S@+](C)(=N)[O-])CC2)nc(-c2ccnc3[nH]ccc23)n1 targetdesc="SEM cells" value=21.5
molecule=NC\1=N\C(=O)N(\C=C1)[C@@H]2O[C@H](CO)[C@@H](O)[C@@H]2O targetdesc="SEM cells" value=7.91
molecule=C[C@]12CCC(=O)C=C1CC[C@@H]1[C@@H]2[C@@H](O)C[C@@]2(C)[C@H]1CC[C@]2(O)C(=O)CO targetdesc="SEM cells" value=108
molecule=CCOC(=O)N1CCN(/[N+]([O-])=N/Oc2ccc([N+](=O)[O-])cc2C#N)CC1 targetdesc="SEM cells" value=15.3

---

Tested on: SEM cells
protocolDetails: cell viability relative to DMSO control; higher = less cytotoxic
experimentalContext: HPLM + 10% dialyzed FBS; 48 h; 0.000781 µM
Please note: cell viability exactly at 90% is N. Only values below 90% get Y.

compound=CCC[C@H](NC(=O)[C@@H]1[C@H]2CCC[C@H]2CN1C(=O)[C@@H](NC(=O)[C@@H](NC(=O)c1cnccn1)C1CCCCC1)C(C)(C)C)C(=O)C(=O)NC1CC1 classification=N
compound=CCn1cc(-c2ccnc3[nH]c(-c4cccc(CN(C)C)c4)cc23)c(-c2ccc(NC(=O)N(C)C)cc2)n1 classification=N
compound=Clc1ccc(-c2nc3sccn3c2/C=N/OCc2ccc(Cl)c(Cl)c2)cc1 classification=N
compound="COc1ccccc1OCC(O)COC(N)=O (stereo unspecified)" classification=Y
compound=CN(C)C1CCN(C(=O)c2ccc(NC(=O)Nc3nc(N4CCOCC4)nc(N4CCOCC4)n3)cc2)CC1 classification=Y
compound=CCN1CCN(CC1)CC(=O)NC2=CC=C(C3=C2C4=C(S3)C=CC=C4)C5=C6O\C(=C/C(=O)C6=CC=C5)N7CCOCC7 classification=N
compound=CCOC(=O)N1CCN(/[N+]([O-])=N/Oc2ccc([N+](=O)[O-])cc2C#N)CC1 classification=Y
compound=O=C1NC(=O)/C(=C/c2ccc3nccc(-c4ccncc4)c3c2)S1 classification=N
compound=O=C(Nc1cc(Cl)cc2c1[nH]c1cnccc12)c1cccnc1 classification=N

---

Overview of reported cell viability across a group of compounds:
Test system: P12-Ichikawa
protocolDetails: cell viability relative to DMSO control; higher = less cytotoxic
experimentalContext: RPMI 5 mM glucose + 10% FBS; 48 h; 0.000781 µM
assayReadout: cell viability (%)

compound=O=C(c1ccc(F)cc1)N1CCC[C@H](c2nc(-c3ccc(F)cc3)no2)C1 assayreadout="cell viability" scaleunit=% value=115
compound=CC[C@H](NC1=C2N=C[NH]C2=NC=N1)C/3=N/C4=C(C(=CC=C4)F)C(=O)N3C5=CC=CC=C5 assayreadout="cell viability" scaleunit=% value=114
compound=CC(C)(C#N)c1cc(Cn2cncn2)cc(C(C)(C)C#N)c1 assayreadout="cell viability" scaleunit=% value=130
compound="COC(=O)C[C@](O)(CCCC(C)(C)O)C(=O)O[C@@H]1C(OC)=CC23CCCN2CCc2cc4c(cc2[C@H]13)OCO4 (stereo partly drawn)" assayreadout="cell viability" scaleunit=% value=99
compound=CCOC(=O)[C@@H](N)Cc1ccc(-c2cc(O[C@H](c3ccc(Cl)cc3-n3ccc(C)n3)C(F)(F)F)nc(N)n2)cc1.O=C(O)CNC(=O)c1ccccc1 assayreadout="cell viability" scaleunit=% value=117
compound=CC1(C)O[C@@H]2C[C@H]3[C@@H]4C[C@H](F)C5=CC(=O)C=C[C@]5(C)[C@@]4(F)[C@@H](O)C[C@]3(C)[C@]2(C(=O)CO)O1 assayreadout="cell viability" scaleunit=% value=106
compound=Cc1c(C)n(Cc2ccc(-c3ccccc3C(=O)O)cc2)c2ccc(C(=O)N[C@@H](C)c3ccc([N+](=O)[O-])cc3)cc12 assayreadout="cell viability" scaleunit=% value=101
compound=NC\1=N\C(=O)N(\C=C1)[C@@H]2O[C@H](CO)[C@@H](O)[C@@H]2O assayreadout="cell viability" scaleunit=% value=14.9

The reported measurements were obtained from the supplement of paper PMC11451515.
